test system: SW-620 colon; assay: NCI tumour cell line growth inhibition, 48 h; in the data active = GI50 below about 0.43 µM; inactive = the rest
Valid outcomes are listed here; reply with one: y (active), n (inactive)

As a guide, the following entries are already answered.
- STRUCTURE STRING: "Cn1cc(-c2csc(-c3ccc(Cl)cc3)n2)c2cccnc21"
  CATEGORY LABEL: "n"
- STRUCTURE STRING: "CC(=O)c1nc(-c2ccc(C[C@@H](CNC(=O)CN(C)C)NC(=O)c3ccc(OC(C)C)c(Cl)c3)cc2)cn1C"
  CATEGORY LABEL: "y"
- STRUCTURE STRING: "CSCc1ncc(-c2ccc(C(F)(F)F)cc2)c(NC2CCCCCC2)n1"
  CATEGORY LABEL: "n"

Problem: Hi, do you know how N.N.N.N.O=S([O-])[O-].[Co+3].[N-]=[N+]=[N-] came out in this test?
Result: n

###

# log10 of TGI values compiled below
test system: HOP-92 NSCLC; assay: NCI tumour cell line growth inhibition, 48 h
Hey, these are logged values: log10 of TGI, µM being the unit before logging.

Examples from the recorded data:
- COMPOUND: "CC(Cl)(CCC(Cl)C(C)(C)Cl)C(=O)CBr (configuration not stated)"
  log10 of TGI: 1.32
- COMPOUND: "O=C(C#Cc1ccccc1)NC/C=C/c1ccccc1"
  log10 of TGI: 1.76

Problem: Name the recorded log10 of TGI for Cc1c(-c2ccc(-c3ccccc3F)cc2)nc2ccc(F)cc2c1C(=O)O .
Result: 1.95

###

tested on: SK-OV-3 ovarian; experiment: NCI tumour cell line growth inhibition, 48 h
REPORTED ENDPOINT: TGI

Examples from the recorded data:
- MOLECULE: "CC1=NN(c2ccccc2)C(=O)/C1=C\\c1c(C)[nH]n(-c2ccccc2)c1=O"
  TARGET UNDER TEST: "SK-OV-3 ovarian"
  REPORTED ENDPOINT: "TGI"
  MEASURED RESULT: "> 100 µM"
- MOLECULE: "COc1ccc(/C=C(\\C#N)c2cc(OC)c(OC)c(OC)c2)cc1"
  TARGET UNDER TEST: "SK-OV-3 ovarian"
  REPORTED ENDPOINT: "TGI"
  MEASURED RESULT: "0.221 µM"
- MOLECULE: "CC(C)C(Br)C(=O)NCC(=O)O (stereo unspecified)"
  TARGET UNDER TEST: "SK-OV-3 ovarian"
  REPORTED ENDPOINT: "TGI"
  MEASURED RESULT: "> 100 µM"

Problem: Name the recorded TGI for COc1ccc(-c2nc(-c3cnccn3)n(C/C=C/c3ccccc3)n2)cc1 .
Result: > 100 µM

Problem: Can you check C[C@@H]1C[C@@H]2OC(=O)[C@]3(C)[C@H]2[C@@H](OC3(C)O)[C@]2(C)C(=O)C=C[C@@H]12 (stereo partly specified) next?
Result: > 100 µM

Problem: Can you check CNCC(SC)c1ccc(O)c(O)c1 (stereo unspecified) next?
Result: > 100 µM

###

tested on: SR leukemia; experiment: NCI tumour cell line growth inhibition, 48 h
Everything with TGI lower than 40 µM is not satisfied; everything else, including exactly 40 µM, is satisfied.

As a guide, the following entries are already answered.
- MOLECULE: "COC1(C)CCC(OS(C)(=O)=O)CO1 (stereo not given)"
  TARGET UNDER TEST: "SR leukemia"
  CATEGORY LABEL: "satisfied"
- MOLECULE: "BrCc1ccc2ccc3ccc(CBr)nc3c2n1"
  TARGET UNDER TEST: "SR leukemia"
  CATEGORY LABEL: "not satisfied"

Problem: Could you verify whether the entry C[C@H](CCc1nc(C#N)c(N)o1)[C@H]1CC[C@H]2[C@@H]3CCC4C[C@@H](O)CC[C@]4(C)[C@H]3C[C@@H](O)[C@]12C (stereo not given in full) shows TGI of no less than 40 µM?
Result: not satisfied

Problem: Can you check CCOc1ccc2cc(-c3nn(CC4CCN(C)CC4)c4ncnc(N)c34)ccc2c1 next?
Result: not satisfied

Problem: Can you check CC(=O)/C(=N\N=C(N)N)c1ccccc1 next?
Result: satisfied

Problem: Can you check C/C(=C\c1ccccc1)C(=O)c1c(C)cc(C)cc1C next?
Result: satisfied

Problem: Can you check CC(C)(C)N=C1C(=O)C2(C)CCC1C2(C)C (stereo not given) next?
Result: satisfied

Problem: Can you check S=C(Nc1ccc(-c2nc3ccccc3s2)cc1)Nc1ccc(-c2nc3ccccc3s2)cc1 next?
Result: satisfied

Problem: Can you check Cc1nc(Nc2ccc(Cl)cc2)sc1C(=O)Nc1cccc2c(=O)[nH][nH]c(=O)c12 next?
Result: satisfied

Problem: Can you check CCOC1=C/C(=N\Nc2ccc([N+](=O)[O-])cc2)CCC1 next?
Result: satisfied

Problem: Can you check COC1OC(C)/C(=N/O)C2OC(C)(C)OC12 (stereo not given) next?
Result: satisfied

Problem: Can you check O=C(NCc1cn(Cc2cccc(Oc3ccccc3)c2)nn1)c1cccnc1NCc1ccc(Cl)cc1 next?
Result: satisfied

Problem: Can you check C/C(N=NS(=O)(=O)c1c(C)cc(C)cc1C)=C1\C=CC=CN1O next?
Result: satisfied

###

system: SK-MEL-28 melanoma; assay: NCI tumour cell line growth inhibition, 48 h
# TGI values compiled below

- COMPOUND: "COC(=O)c1c(CC(=O)OC(C)C)cc2n(c1=O)Cc1c-2nc2ccccc2c1OC"
  TARGET UNDER TEST: "SK-MEL-28 melanoma"
  MEASURED RESULT: "> 100 µM"
- COMPOUND: "C[C@]12CC[C@H]3[C@@H](CC=C4C[C@@H](O)CC[C@@]43C)[C@@H]1C/C(=C\\c1ccc([N+](=O)[O-])cc1)[C@@H]2O"
  TARGET UNDER TEST: "SK-MEL-28 melanoma"
  MEASURED RESULT: "57.6 µM"
- COMPOUND: "CCOC(=O)/C=C/c1ccc([N+](=O)[O-])o1"
  TARGET UNDER TEST: "SK-MEL-28 melanoma"
  MEASURED RESULT: "5.07 µM"
- COMPOUND: "CN(C)CCN=c1nc2c(c(N)n1-c1ccccc1)c(=S)n(-c1ccccc1)c(=S)n2-c1ccccc1"
  TARGET UNDER TEST: "SK-MEL-28 melanoma"
  MEASURED RESULT: "2.33 µM"
- COMPOUND: "COc1cc(/C=C2\\N=C(c3ccccc3)N(c3cc4cc(Sc5ccccc5)ccc4[nH]3)C2=O)ccc1O"
  TARGET UNDER TEST: "SK-MEL-28 melanoma"
  MEASURED RESULT: "> 50 µM"

Problem: Name the recorded TGI for COc1c(OC2OC(C)C(O)C(O)C2O)c(OC)c2oc(-c3ccc(O)cc3)cc(=O)c2c1O (stereo not given) .
Result: > 100 µM

###

# TGI values compiled below
test system: MDA-N; experiment: NCI tumour cell line growth inhibition, 48 h

Examples from the recorded data:
- COMPOUND: "CN1C2C=CC(=O)C1C(C#N)C2 (configuration not stated)"
  TGI: "> 100 µM"
- COMPOUND: "CN(C)Cc1cc(/C=C/C(=O)c2ccc(Br)cc2)cc(CN(C)C)c1O"
  TGI: "32.6 µM"

Next item in the queue.
Problem: # get_value(readout= TGI, system= MDA-N) for C#CC(O)/C=C/C(O)CCCC(O)CC#CC(O)C#CCCCCC(O)/C=C/CCCC(=O)CCCCCCCCCCCCCCCC(O)C(O)C#CC(=O)O (configuration not stated)
Result: > 25 µM

###

test system: UO-31 renal; experiment: NCI tumour cell line growth inhibition, 48 h
REPORTED ENDPOINT: TGI (µM)
Please reply with the bare figure in µM and do not write the unit itself.

Examples from the recorded data:
- MOLECULE: "C=C(c1ccccc1)c1cc2c(=O)[nH]ccc2n1C"
  UNIT OF MEASUREMENT: "µM"
  MEASURED RESULT: 66.1
- MOLECULE: "CSCSCC(CO)NC(=O)/C=C\\c1c(C)[nH]c(=O)[nH]c1=O (stereo not given)"
  UNIT OF MEASUREMENT: "µM"
  MEASURED RESULT: 126
- MOLECULE: "COc1c2c(c(O)c3c4c(c(C)cc13)C1OC3(C(OC)OC5CC(C)(O)C(OC6CC(C)(O)C(O)C(C)O6)C(C)O5)OC1C(OC)(O4)C31CO1)C(=O)C(O)CC2OC1CC(C)(O)C(OC(C)=O)C(C)O1 (stereo not given)"
  UNIT OF MEASUREMENT: "µM"
  MEASURED RESULT: 0.154

Problem: Name the recorded TGI for CC(C)(C)OC(=O)NCC(c1c[nH]c2ccccc12)c1c[nH]c2ccccc12 .
Result: 27.4

Problem: Can you check Nc1ccccc1SC(/C=C/NNC1=NC(c2ccccc2)C(c2ccccc2)=NN1)c1ccccc1 (stereo not given) next?
Result: 18.4
